test: qHTS RealTime-Glo MT Cell Viability Assay in HEK293 cells - 8 hour (AID 1224887); conditions: RealTime-Glo luminescence; series mostly up to 76.8 µM; note: nearly all actives have a fitted effect of over 50% in size
Records with an inconclusive call do not appear. Activity calls are given as the source filed them. Calls come from the whole dose curve; as a rule, active = well fitted cell-killing curve with a large enough effect in the repeat runs; inconclusive = weak or mixed curves, or effect the other way; inactive = flat fitted curve, though single readings scatter.
Tick one outcome: Yes = active, No = inactive

- CCOC(=O)[C@H](CCc1ccccc1)N[C@@H](C)C(=O)N(CC(=O)O)C1Cc2ccccc2C1: No
- NC1[C@H]2CN(c3nc4c(cc3F)c(=O)c(C(=O)O)cn4-c3ccc(F)cc3F)C[C@@H]12 (stereo partly drawn): No
- C[C@@H](O)[C@H]1C(=O)N2C(C(=O)O)=C([C@H]3CCCO3)S[C@H]12: No
- CN1CCCC(n2nc(Cc3ccc(Cl)cc3)c3ccccc3c2=O)CC1 (stereo not drawn): Yes
- CCC(C)COC(C)=O (stereo not drawn): No

Outcome logged for CCCCCCCCOc1ccc(C(=O)O)cc1 in this assay:
No

Outcome logged for CC(C)=CCC/C(C)=C/CC/C(C)=C/C(=O)OCC(=O)[C@@]1(O)CC[C@H]2[C@@H]3CCC4=CC(=O)C=C[C@]4(C)[C@H]3[C@@H](O)C[C@@]21C in this assay:
Yes

Outcome logged for CN1C[C@H](C(=O)N[C@]2(C)O[C@@]3(O)[C@@H]4CCCN4C(=O)[C@H](Cc4ccccc4)N3C2=O)C[C@@H]2c3cccc4[nH]cc(c34)C[C@H]21 in this assay:
Yes

Outcome logged for O=C1CCCCCCCCCCOCCCCO1 in this assay:
No

Outcome logged for O=C1C(=O)c2ccccc2C(O)=C1C1CCC(c2ccc(Cl)cc2)CC1 (stereo not drawn) in this assay:
No

Outcome logged for CCn1cc(C(=O)O)c(=O)c2cc(F)c(N3CCNCC3)cc21 in this assay:
No

Outcome logged for CC(O)c1ccccc1 (stereo not drawn) in this assay:
No

Outcome logged for Cc1ccc2c(Br)cc(Br)c(O)c2n1 in this assay:
No

Outcome logged for CC(C)C[C@H](NC(=O)[C@H](CCc1ccccc1)NC(=O)CN1CCOCC1)C(=O)N[C@@H](Cc1ccccc1)C(=O)N[C@@H](CC(C)C)C(=O)[C@@]1(C)CO1 in this assay:
No

Outcome logged for COC(=O)c1nc(Cl)c(Cl)nc1N in this assay:
Yes

Outcome logged for CCC(=O)OC in this assay:
No

Outcome logged for C1COC1 in this assay:
No

Outcome logged for Cc1cc(C)cc(N)c1 in this assay:
No

Outcome logged for C=Cc1ccc(S(=O)(=O)O)cc1 in this assay:
No

---

test: qHTS assay to identify small molecule antagonists of the progesterone receptor (PR) signaling pathway - cell viability counter screen (AID 1346798); details: PR-UAS-bla HEK293T viability, CellTiter-Glo luminescence, 16 h; series mostly up to 92.4 µM; note: nearly all actives have a fitted effect of over 50% in size; note: potency is the fitted concentration of half-maximal effect
Inconclusive results are not listed. Calls of active or inactive are those of the source. The call rests on the fitted dose curve; in most records, active means well fitted cell-killing curve with a large enough effect in the repeat runs; inconclusive means weak or mixed curves, or effect the other way; inactive means no such curve, though single readings can be large or run the other way.
QUANTITY: Potency

Recorded Potency, per entry:
- CC(CC1c2ccccc2CCc2ccccc21)CN(C)C (stereo not drawn): 23.7 µM (active)
- C=COCC(C)C: inactive
- C=C(C)CCCC(C)CCO (stereo not drawn): inactive
- CO[C@]1(NC(=O)CSC(F)F)C(=O)N2C(C(=O)O)=C(CSc3nnnn3CCO)CO[C@H]21: inactive

# return Potency for each item in the list
1. CCOC(=O)c1ccc(O)c(O)c1
2. C1C[C@@H]2[C@H]3CC[C@H](C3)[C@@H]2C1
3. CCc1ccccc1

1: inactive; 2: inactive; 3: inactive

# return Potency for each item in the list
1. CC1=Nc2ccc3ccccc3c2C1(C)C
2. Nc1cccc2c1CN(C1CCC(=O)NC1=O)C2=O (stereo not drawn)
3. CS(=O)(=O)c1ccc(-c2cn3ccccc3n2)cc1
4. O=C(/C=C/c1ccccc1)OCCc1ccccc1
5. CC(C)(C)C(=O)C(=O)O
6. CC(C)C[C@H](NC(=O)[C@H](CCc1ccccc1)NC(=O)CN1CCOCC1)C(=O)N[C@@H](Cc1ccccc1)C(=O)N[C@@H](CC(C)C)C(=O)[C@@]1(C)CO1

1. 12.2 µM (active)
2. inactive
3. 29.8 µM (active)
4. inactive
5. inactive
6. inactive

---

assay: qHTS assay to identify small molecule agonists of the peroxisome proliferator-activated receptor delta (PPARd) signaling pathway - cell viability counter screen (AID 743211); details: PPARd-bla HEK293H viability, CellTiter-Glo luminescence, 17 h; series mostly up to 62.6 µM; note: nearly all actives have a fitted effect of over 55% in size
Records with an inconclusive call do not appear. Active and inactive are the calls of the source. Calls follow the shape of the dose curve; as a rule, active = well fitted cell-killing curve with a large enough effect in the repeat runs; inconclusive = weak or mixed curves; inactive = no such curve, though single readings can be large or run the other way.
Tick one outcome: active, inactive

Sample answers from the record:
* Cc1cc(C)c(N)cc1C | inactive
* CCn1cc(C(=O)O)c(=O)c2cc(F)c(N3CCNCC3)cc21 | inactive
* CC(=O)c1cc2ccccc2s1 | inactive

Outcome logged for Oc1cccc(Nc2ccccc2)c1 in this assay:
inactive

Outcome logged for CC(C)=CCC/C(C)=C/CC/C(C)=C/C(=O)OCC(=O)[C@@]1(O)CC[C@H]2[C@@H]3CCC4=CC(=O)C=C[C@]4(C)[C@H]3[C@@H](O)C[C@@]21C in this assay:
active

Outcome logged for O=C1c2ccccc2C(=O)c2c(O)c(O)cc(O)c21 in this assay:
inactive

Outcome logged for Cc1ccco1 in this assay:
inactive

---

Test: qHTS assay to identify small molecule agonists of the estrogen receptor beta (ER-beta) signaling pathway - cell viability counter screen (AID 1259380); note: nearly all actives have a fitted effect of over 30% in size
Conditions: ER-beta-bla HEK293T viability, CellTiter-Glo luminescence, 16 h; series mostly up to 92.4 µM
From the text: National Center for Advancing Translational Sciences [NCATS] NIH Chemical Genomics Center [NCGC] U.S. Environmental Protection Agency [EPA] National Institutes of Environmental Health Sciences [NIEHS] National Toxicology Program [NTP] U.S. Food and Drug Administration [FDA] Estrogen receptor (ER), a nuclear hormone receptor, plays an important role in development, metabolic homeostasis and reproduction. […]
Inconclusive results are not listed. The source made the active and inactive calls. Calls come from the whole dose curve; as a rule, active = well fitted cell-killing curve with a large enough effect in the repeat runs; inconclusive = weak or mixed curves, or effect the other way; inactive = flat fitted curve, though single readings scatter.
Tick one outcome: True (active), False (inactive)

Sample answers from the record:
• CCCCCCCC/C=C\CCCCCCCCCCCC(=O)O = False
• NCCNCCO = False
• CC(=O)[C@H]1[C@H](C#N)C[C@H]2[C@@H]3CC=C4C[C@@H](O)CC[C@]4(C)[C@H]3CC[C@@]21C = True

Outcome logged for CC(=O)c1ccc([N+](=O)[O-])cc1 in this assay:
False

Outcome logged for COc1ncnc(NS(=O)(=O)c2ccc(N)cc2)c1OC in this assay:
False

Outcome logged for CCOC(C)=O in this assay:
False

Outcome logged for Nc1ccc(N=Nc2ccccc2)c(N)c1 in this assay:
True

Outcome logged for CC(=O)N/N=C/c1ccc([N+](=O)[O-])o1 in this assay:
False

Outcome logged for CC(C)c1nc(CN(C)C(=O)N[C@H](C(=O)N[C@@H](Cc2ccccc2)C[C@H](O)[C@H](Cc2ccccc2)NC(=O)OCc2cncs2)C(C)C)cs1 in this assay:
True

Outcome logged for CC1(C)O[C@@H]2C[C@H]3[C@@H]4C[C@H](F)C5=CC(=O)C=C[C@]5(C)[C@H]4[C@@H](O)C[C@]3(C)[C@]2(C(=O)CO)O1 in this assay:
False

Outcome logged for CCOC(=O)c1ccc(I)cc1 in this assay:
False

Outcome logged for CCCCCCCCN in this assay:
False

Outcome logged for CCOC(=O)c1ccc(OCCN2C[C@H](O)[C@@H](O)[C@H](O)[C@H]2CO)cc1 in this assay:
False

Outcome logged for C=C1c2cccc(O)c2C(O)=C2C(=O)[C@]3(O)C(O)=C(C(N)=O)C(=O)[C@@H](N(C)C)[C@@H]3[C@@H](O)[C@H]12 in this assay:
False

Outcome logged for CN1CCCC(CC2c3ccccc3Sc3ccccc32)C1 (stereo not drawn) in this assay:
True

Outcome logged for C=CC(C)(CCC=C(C)C)OC(=O)CC(C)C (stereo not drawn) in this assay:
False

Outcome logged for O=C1c2ccccc2C(=O)C1c1nc2ccccc2c(Br)c1O in this assay:
False

---

test: qHTS assay to identify small molecule agonists of the farnesoid-X-receptor (FXR) signaling pathway - cell viability counter screen (AID 743218); conditions: FXR-bla HEK293T viability, CellTiter-Glo luminescence, 16 h; series mostly up to 62.6 µM; note: nearly all actives have a fitted effect of over 45% in size
Results filed as inconclusive are left out. Calls of active or inactive are those of the source. Calls follow the shape of the dose curve; as a rule, active = well fitted cell-killing curve with a large enough effect in the repeat runs; inconclusive = weak or mixed curves, or effect the other way; inactive = no such curve, though single readings can be large or run the other way.
Tick one outcome: label 1 for active, label 0 for inactive

Sample answers from the record:
• COc1ccccc1N1CCN(CC(O)COc2cccc3ccccc23)CC1 (configuration not stated) = label 0
• Cc1cccc(O)c1N = label 0
• Cc1cc(O)c(C)c(C)c1O = label 0
• C=C1C[C@@]23CC[C@H]4[C@@](C)(CCC[C@@]4(C)C(=O)O[C@@H]4O[C@H](CO)[C@@H](O)[C@H](O)[C@H]4O)[C@@H]2CC[C@]1(O[C@@H]1O[C@H](CO)[C@@H](O)[C@H](O[C@@H]2O[C@H](CO)[C@@H](O)[C@H](O)[C@H]2O)[C@H]1O[C@@H]1O[C@H](CO)[C@@H](O)[C@H](O)[C@H]1O)C3 = label 0

Outcome logged for C=CC(=O)[O-].C=CC(=O)[O-].[Zn+2] in this assay:
label 0

Outcome logged for Cc1ccccc1N=C(N)Nc1ccccc1C in this assay:
label 0

Outcome logged for CC(=O)c1ccc([N+](=O)[O-])cc1 in this assay:
label 0

Outcome logged for Oc1c(I)cc(I)c2cccnc12 in this assay:
label 0

Outcome logged for CC(O)c1ccccc1 (configuration not stated) in this assay:
label 0

Outcome logged for CN1C(C(=O)Nc2ccccn2)=C(O)c2sccc2S1(=O)=O in this assay:
label 0

Outcome logged for CCOc1ccccc1O[C@H](c1ccccc1)[C@H]1CNCCO1 in this assay:
label 0

Outcome logged for CCCCC(CC)COP(=O)(O)O (configuration not stated) in this assay:
label 0

Outcome logged for C=C(C)CCCC(C)CCO (configuration not stated) in this assay:
label 0

Outcome logged for C[C@]1(Cn2ccnn2)[C@H](C(=O)O)N2C(=O)C[C@H]2S1(=O)=O in this assay:
label 0

Reference for the values: PubChem BioAssay (Tox21)
